# assay target: SHP2 catalytic domain (SHP2cat; residues 248-527) (Homo sapiens (Human))
# Sequence (Q06124 248-527): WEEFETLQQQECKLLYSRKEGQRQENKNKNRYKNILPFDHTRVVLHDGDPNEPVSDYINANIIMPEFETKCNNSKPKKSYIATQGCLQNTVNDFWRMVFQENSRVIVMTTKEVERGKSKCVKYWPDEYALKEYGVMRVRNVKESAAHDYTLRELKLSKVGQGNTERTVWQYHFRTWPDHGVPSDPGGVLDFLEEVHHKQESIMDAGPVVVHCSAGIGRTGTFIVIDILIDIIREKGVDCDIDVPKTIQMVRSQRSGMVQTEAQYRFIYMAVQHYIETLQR
# assay method text: DiFMUP fluorescence intensity phosphatase inhibition assay, SHP2cat
# Type: biochemical
# protocol conditions: DiFMUP at Km (20 μM); read-out: SHP2cat IC50
So I've got a bunch of molecules here, and I need their IC50 values.

O=C1CCC/C1=C\c1ccc(-c2ccc(O)c(C(=O)Nc3ccccc3)c2)o1 = 1000 to 20000 nM
O=C1/C(=C/c2ccc(-c3ccc(O)c(-c4nn[nH]n4)c3)o2)Sc2ccccc21 = 1000 to 20000 nM
O=C1/C(=C/c2ccc(-c3ccc(O)c(C(=O)N4CCCCC4)c3)o2)Sc2ccccc21 = 1000 to 20000 nM
N#Cc1cc(-c2ccc(/C=C3\Sc4ccccc4C3=O)o2)ccc1O = 1000 to 20000 nM

**Query** Requested read-out IC50, target or system SHP2 catalytic domain (SHP2cat; residues 248-527) (Homo sapiens (Human)), entry `O=C(Nc1ccccc1)c1cc(-c2ccc(/C=C3\Sc4ccccc4C3=O)o2)ccc1O`
**Result** ≤ 1000 nM

Reference source for all entries: patent US20250026741A1
